Recorded values, source patent US12534534.

# Target under test: human CD137 on DO11.10-hCD137 cells (human, UniProt Q07011 24-255)
# Sequence (Q07011 24-255): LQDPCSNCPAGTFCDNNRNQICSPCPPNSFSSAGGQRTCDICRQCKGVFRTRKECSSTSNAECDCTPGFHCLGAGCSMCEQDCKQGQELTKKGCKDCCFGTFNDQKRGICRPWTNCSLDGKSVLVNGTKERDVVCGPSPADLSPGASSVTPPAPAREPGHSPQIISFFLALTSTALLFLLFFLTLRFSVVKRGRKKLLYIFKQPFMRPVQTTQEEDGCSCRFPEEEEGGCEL
# Test protocol: cell-based or functional assay
Property measured: DO11.10-hCD137 T cell activation assay EC50 (nM), crosslinked

{"Binder": "FS20-22-49AA/FS30-10 (bispecific antibody, human IgG1, kappa, L234A L235A, V domains shown, also called FS30-10 in mAb^2 format) VH: EVQLLESGGGLVQPGGSLRLSCAASGFTFSSYDMSWVRQAPGKGLEWVSDIDPTGSKTDYADSVKGRFTISRDNSKNTLYLQMNSLRAEDTAVYYCARDLMVYGFDYWGQGTLVTVSS VL: EIVLTQSPGTLSLSPGERATLSCRASQSVSSSYLAWYQQKPGQAPRLLIYGASSRATGIPDRFSGSGSGTDFTLTISRLEPEDFAVYYCQQSYSYPVTFGQGTKVEIKR", "Unit abbreviation": "nM", "Observed": 10.2}
{"Binder": "FS20-22-49AA/FS30-10-16 (bispecific antibody, human IgG1, kappa, L234A L235A, V domains shown, M97 (Kabat) to L against FS30-10; also called FS30-10-16 in mAb^2 format) VH: EVQLLESGGGLVQPGGSLRLSCAASGFTFSSYDMSWVRQAPGKGLEWVSDIDPTGSKTDYADSVKGRFTISRDNSKNTLYLQMNSLRAEDTAVYYCARDLLVYGFDYWGQGTLVTVSS VL: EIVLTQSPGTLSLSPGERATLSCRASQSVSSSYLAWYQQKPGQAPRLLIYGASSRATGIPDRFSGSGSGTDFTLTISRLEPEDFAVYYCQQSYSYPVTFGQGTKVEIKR", "Unit abbreviation": "nM", "Observed": 3.7}
{"Binder": "FS20-22-49AA/FS30-35 variant, Methionine (100F) to H (bispecific antibody, V domains shown) VH: EVQLLESGGGLVQPGGSLRLSCAASGFTFSAYNIHWVRQAPGKGLEWVSDISPYGGATNYADSVKGRFTISRDNSKNTLYLQMNSLRAEDTAVYYCARNLYELSAYSYGHDYWGQGTLVTVSS VL: EIVLTQSPGTLSLSPGERATLSCRASQSVSSSYLAWYQQKPGQAPRLLIYGASSRATGIPDRFSGSGSGTDFTLTISRLEPEDFAVYYCQQYYYSSPITFGQGTKVEIKR", "Unit abbreviation": "nM", "Observed": 9.5}
{"Binder": "FS20-22-49AA/FS30-5 variant, Methionine (100D) to I (bispecific antibody, V domains shown) VH: EVQLLESGGGLVQPGGSLRLNCAASGFTFSSYAMSWVRQAPGKGLEWVSAISGSGGSTYYADSVKGRFTISRDNSKNTLYLQMNSLRAEDTAVYYCARSYDKYWGSSIYSGMDYWGQGTLVTVSS VL: EIVLTQSPGTLSLSPGERATLSCRASQSVSSSYLAWYQQKPGQAPRLLIYGASSRATGIPDRFSGSGSGTDFTLTISRLEPEDFAVYYCQQYYSYYPVTFGQGTKVEIKR", "Unit abbreviation": "nM", "Observed": 4.4}
{"Binder": "FS20-22-49AA/FS30-35-14 (bispecific antibody, human IgG1, kappa, L234A L235A, V domains shown, M100F (Kabat) to A against FS30-35; also called FS30-35-14 in mAb^2 format) VH: EVQLLESGGGLVQPGGSLRLSCAASGFTFSAYNIHWVRQAPGKGLEWVSDISPYGGATNYADSVKGRFTISRDNSKNTLYLQMNSLRAEDTAVYYCARNLYELSAYSYGADYWGQGTLVTVSS VL: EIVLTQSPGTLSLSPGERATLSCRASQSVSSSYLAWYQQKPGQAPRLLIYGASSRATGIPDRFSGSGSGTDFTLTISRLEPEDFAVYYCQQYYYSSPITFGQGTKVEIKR", "Unit abbreviation": "nM", "Observed": 6.3}
{"Binder": "FS20-22-49AA/FS30-35 (bispecific antibody, human IgG1, kappa, L234A L235A, V domains shown, also called FS30-35 in mAb^2 format) VH: EVQLLESGGGLVQPGGSLRLSCAASGFTFSAYNIHWVRQAPGKGLEWVSDISPYGGATNYADSVKGRFTISRDNSKNTLYLQMNSLRAEDTAVYYCARNLYELSAYSYGMDYWGQGTLVTVSS VL: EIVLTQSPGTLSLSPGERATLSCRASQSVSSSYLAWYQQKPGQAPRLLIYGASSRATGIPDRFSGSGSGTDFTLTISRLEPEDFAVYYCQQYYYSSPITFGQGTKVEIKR", "Unit abbreviation": "nM", "Observed": 5.5}
{"Binder": "FS20-22-49AA/FS30-5 (bispecific antibody, human IgG1, kappa, L234A L235A, V domains shown, also called FS30-5 in mAb^2 format) VH: EVQLLESGGGLVQPGGSLRLNCAASGFTFSSYAMSWVRQAPGKGLEWVSAISGSGGSTYYADSVKGRFTISRDNSKNTLYLQMNSLRAEDTAVYYCARSYDKYWGSSMYSGMDYWGQGTLVTVSS VL: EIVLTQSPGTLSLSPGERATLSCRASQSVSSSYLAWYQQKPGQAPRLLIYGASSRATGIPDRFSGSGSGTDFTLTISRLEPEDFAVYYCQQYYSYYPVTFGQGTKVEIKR", "Unit abbreviation": "nM", "Observed": 4.8}
{"Binder": "FS20-22-49AA/FS30-10-3 (bispecific antibody, human IgG1, kappa, L234A L235A, V domains shown, M97 (Kabat) to N against FS30-10; also called FS30-10-3 in mAb^2 format) VH: EVQLLESGGGLVQPGGSLRLSCAASGFTFSSYDMSWVRQAPGKGLEWVSDIDPTGSKTDYADSVKGRFTISRDNSKNTLYLQMNSLRAEDTAVYYCARDLNVYGFDYWGQGTLVTVSS VL: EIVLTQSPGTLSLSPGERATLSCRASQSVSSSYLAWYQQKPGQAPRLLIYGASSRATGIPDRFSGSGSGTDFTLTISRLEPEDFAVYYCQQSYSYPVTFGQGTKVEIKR", "Unit abbreviation": "nM", "Observed": 4.8}
{"Binder": "FS20-22-49AA/FS30-5 variant, Methionine (100H) to L (bispecific antibody, V domains shown) VH: EVQLLESGGGLVQPGGSLRLNCAASGFTFSSYAMSWVRQAPGKGLEWVSAISGSGGSTYYADSVKGRFTISRDNSKNTLYLQMNSLRAEDTAVYYCARSYDKYWGSSMYSGLDYWGQGTLVTVSS VL: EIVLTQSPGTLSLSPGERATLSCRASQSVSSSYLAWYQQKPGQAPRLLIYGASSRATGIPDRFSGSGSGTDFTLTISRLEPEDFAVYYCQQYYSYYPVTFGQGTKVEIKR", "Unit abbreviation": "nM", "Observed": 5.9}
{"Binder": "FS20-22-49AA/FS30-10-12 (bispecific antibody, human IgG1, kappa, L234A L235A, V domains shown, M97 (Kabat) to T against FS30-10; also called FS30-10-12 in mAb^2 format) VH: EVQLLESGGGLVQPGGSLRLSCAASGFTFSSYDMSWVRQAPGKGLEWVSDIDPTGSKTDYADSVKGRFTISRDNSKNTLYLQMNSLRAEDTAVYYCARDLTVYGFDYWGQGTLVTVSS VL: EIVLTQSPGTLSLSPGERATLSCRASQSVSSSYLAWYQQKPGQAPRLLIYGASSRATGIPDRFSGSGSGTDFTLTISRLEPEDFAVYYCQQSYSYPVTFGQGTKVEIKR", "Unit abbreviation": "nM", "Observed": 4.5}
